# TGT: PvLDH (lactate dehydrogenase) (Plasmodium vivax) (UniProt Q4PRK9)
# EXPERIMENTAL PROTOCOL: flow cytometry (Ni-NTA beads)
# CONDITION DESCRIPTION: dUCOTc replaces every T after the 20-nt forward primer
RESULT TYPE: pKd
The read-out pKd is expressed as -log10 of concentration in moles per litre.

Consider the sequence CACTCACGTCAGTGACATGCAGGTCCTCTCGCCCCCAGTGACTTGCGTGGTCAGAAATTTCGCACCAC [N15 COTc aptamer] and give its measured pKd.
8.25

Could you tell me which pKd is on file for CACTCACGTCAGTGACATGCCAAGCGAAGTTGTGCGCCCGCGTCGTGGTCGTCAGAAATTTCGCACCAC [N5 COTc aptamer] ?
7.84

Data origin: paper PMC12436594
